Just for reference, patent US12466781B2 is where these values come from.

EC50 by entry:
Biological target: TRα (Homo sapiens, UniProt P10827)
Construct: expressed in transfected cells; host or cells: HEK293
Sequence (P10827 163-410 isoform P10827-2 limits assumed): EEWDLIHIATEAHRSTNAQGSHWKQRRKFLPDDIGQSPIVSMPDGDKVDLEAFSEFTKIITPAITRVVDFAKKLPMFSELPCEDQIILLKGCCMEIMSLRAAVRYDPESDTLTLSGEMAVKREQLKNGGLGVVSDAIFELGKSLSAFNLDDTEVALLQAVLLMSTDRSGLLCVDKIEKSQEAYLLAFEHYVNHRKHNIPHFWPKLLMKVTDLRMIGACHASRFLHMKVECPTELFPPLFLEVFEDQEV
Assay: Thyroid-hormone reporter-gene assay (TRα-Gal4 hybrid, luciferase, HEK293)
Format: cell-based
Conditions: reporter cells, 24 hr incubation; Table 2; read-out: TRα (EC50)

compound | EC50
COc1c(Cc2c(Cl)cc(OCC(=O)O)cc2Cl)ccc(O)c1C(C)C [Compound 54] | > 1 µM
CC(C)c1cc(Cc2c(C(C)C)cc(OCC(=O)O)c(F)c2Cl)ccc1O [Compound 81] | 0.01 to 0.1 µM
O=C(O)COc1cc(Cl)c(Cc2ccc(O)c(Cc3ccc(F)cc3)c2)c(Cl)c1F [Compound 83] | 0.1 to 1 µM
CCCC(c1ccc(F)cc1)c1cc(Cc2c(Cl)cc(OCC(=O)O)c(F)c2Cl)ccc1O (stereo not drawn) [Compound 85] | > 1 µM
Cc1c(OCC(=O)O)cc(Cl)c(Cc2ccc(O)c(C(C)C)c2)c1Cl [Compound 91] | 0.1 to 1 µM
CCc1c(F)c(OCC(=O)O)cc(Cl)c1Cc1ccc(O)c(C(C)C)c1 [Compound 69] | > 1 µM
C=C(C)c1cc(OCC(=O)O)cc(Cl)c1Cc1ccc(O)c(C(C)C)c1F [Compound 46] | 0.01 to 0.1 µM
CC(c1ccc(F)cc1)c1c(O)ccc(Cc2c(Cl)cc(OCC(=O)O)c(F)c2Cl)c1F (stereo not drawn) [Compound 107] | 0.01 to 0.1 µM
Cc1c(F)c(OCC(=O)O)cc(Cl)c1Cc1ccc(O)c(C(C)C)c1 [Compound 118] | 0.1 to 1 µM
CC(C)c1c(O)ccc(Cc2c(Cl)cc(OCC(=O)O)cc2Cl)c1Cl [Compound 49] | 0.1 to 1 µM
CC(C)c1c(O)ccc(Cc2c(Cl)cc(OCC(=O)O)c(F)c2C(C)C)c1F [Compound 123] | 0.1 to 1 µM
CCC(c1ccc(F)cc1)c1c(O)ccc(Cc2c(Cl)cc(OCC(=O)O)cc2Cl)c1F (stereo not drawn) [Compound 32] | 0.1 to 1 µM
